assay_protocol: Apparent half life in Sprague-Dawley rat at 3.6 mg/kg, iv
Type: ADME, organism-based
Design: dose 3.6 mg/kg, route intravenous
particulars: in vivo
property_measured: half-life (min)
Numbers only, in min.

Using known records, supply half-life for C[S+]([O-])c1ccc(-c2cnc3ccc(-c4cccc(S(=O)(=O)C5CC5)c4)nn23)cc1 (stereo unspecified)
33

###

System: Rattus norvegicus
assay_protocol: Oral bioavailability in Sprague-Dawley rat at 3.6 mg/kg
Format: ADME, organism-based
particulars: in vivo
property_measured: bioavailability

Using known records, supply bioavailability for C[S+]([O-])c1ccc(-c2cnc3ccc(-c4cccc(S(=O)(=O)C5CC5)c4)nn23)cc1 (stereo unspecified)
11%
